Hey, just so you know, these numbers are from patent US7989464B2.

Molecular target: hmGluR1 receptor (Homo sapiens, UniProt Q13255)
Construct: expressed in transfected cells
Sequence (Q13255 19-1194): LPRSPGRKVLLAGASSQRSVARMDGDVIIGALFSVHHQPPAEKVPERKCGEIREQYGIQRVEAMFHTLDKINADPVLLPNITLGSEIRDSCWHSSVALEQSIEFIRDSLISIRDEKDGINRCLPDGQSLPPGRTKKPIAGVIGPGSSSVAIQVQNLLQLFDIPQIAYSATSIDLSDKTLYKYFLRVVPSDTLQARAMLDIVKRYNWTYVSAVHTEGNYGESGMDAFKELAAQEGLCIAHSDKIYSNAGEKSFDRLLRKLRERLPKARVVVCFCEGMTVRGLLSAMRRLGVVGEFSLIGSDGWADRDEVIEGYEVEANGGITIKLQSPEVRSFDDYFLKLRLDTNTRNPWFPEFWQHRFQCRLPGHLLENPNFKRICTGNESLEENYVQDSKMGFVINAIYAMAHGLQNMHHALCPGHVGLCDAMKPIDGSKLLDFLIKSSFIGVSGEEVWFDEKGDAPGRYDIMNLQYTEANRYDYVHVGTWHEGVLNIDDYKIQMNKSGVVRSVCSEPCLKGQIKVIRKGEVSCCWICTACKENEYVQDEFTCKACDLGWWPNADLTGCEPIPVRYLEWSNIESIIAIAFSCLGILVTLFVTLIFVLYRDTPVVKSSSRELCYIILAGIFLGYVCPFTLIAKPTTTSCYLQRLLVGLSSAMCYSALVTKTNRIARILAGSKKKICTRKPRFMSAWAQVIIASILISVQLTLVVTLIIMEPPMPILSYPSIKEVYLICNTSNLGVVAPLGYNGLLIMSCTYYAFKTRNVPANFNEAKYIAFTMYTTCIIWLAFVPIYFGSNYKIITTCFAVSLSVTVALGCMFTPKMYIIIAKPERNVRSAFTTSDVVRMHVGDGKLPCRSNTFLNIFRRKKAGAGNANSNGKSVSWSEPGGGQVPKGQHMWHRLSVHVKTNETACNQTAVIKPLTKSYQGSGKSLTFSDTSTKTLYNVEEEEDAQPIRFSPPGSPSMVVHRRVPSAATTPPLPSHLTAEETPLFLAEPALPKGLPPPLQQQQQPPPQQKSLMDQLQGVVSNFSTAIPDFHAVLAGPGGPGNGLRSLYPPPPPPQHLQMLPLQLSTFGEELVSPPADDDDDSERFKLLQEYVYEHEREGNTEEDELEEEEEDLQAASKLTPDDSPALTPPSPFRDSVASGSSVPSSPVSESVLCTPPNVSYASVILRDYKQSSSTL
Assay: IC50 determination: intracellular calcium mobilization (FLIPR) upon Quisqualate stimulation in CHO cells stably expressing hmGluR1
Assay type: cell-based
Settings: against Quisqualate 1 μM (EC80), class symbols, read-out: mGIuR 1 IC50
# maps each entry to its IC50

| Compound | Readout name | Value measured |
| --- | --- | --- |
| O=c1c2sc3nccc(C4CCCC4)c3c2ncn1C1CCCCC1 [29B] | IC50 | > 1000 nM |
| CSc1ccc(-n2cnc3c(sc4nc(C)cc(N(C)C)c43)c2=O)cc1 [7DA] | IC50 | 150 to 1000 nM |

Lab note: record IC50 of CCNc1ccnc2sc3c(=O)n(-c4ccccc4)c(C)nc3c12 [113F] tested on hmGluR1 receptor (Homo sapiens, UniProt Q13255).
< 50 nM

Supply IC50 measured with hmGluR1 receptor (Homo sapiens, UniProt Q13255) for CN(C)c1ccnc2sc3c(=O)n(-c4ccsc4)cnc3c12 [15AA] .
< 50 nM

Using hmGluR1 receptor (Homo sapiens, UniProt Q13255) as the test system, report measured IC50 of CN(C)c1ccnc2sc3c(=O)n(-c4ccc5sccc5c4)cnc3c12 [7BM] .
< 50 nM
